target: ATP-dependent translocase ABCB1 (Homo sapiens); assay: Inhibition of MDR1 (unknown origin) expressed in MDCK cells assessed as increase in doxorubicin-induced cytotoxicity at 10 uM after 48 hrs by MTT assay relative to control; assay type: cell-based; parameters: scale not given: the % may be the effect or the level left
Sequence (P08183 whole entry): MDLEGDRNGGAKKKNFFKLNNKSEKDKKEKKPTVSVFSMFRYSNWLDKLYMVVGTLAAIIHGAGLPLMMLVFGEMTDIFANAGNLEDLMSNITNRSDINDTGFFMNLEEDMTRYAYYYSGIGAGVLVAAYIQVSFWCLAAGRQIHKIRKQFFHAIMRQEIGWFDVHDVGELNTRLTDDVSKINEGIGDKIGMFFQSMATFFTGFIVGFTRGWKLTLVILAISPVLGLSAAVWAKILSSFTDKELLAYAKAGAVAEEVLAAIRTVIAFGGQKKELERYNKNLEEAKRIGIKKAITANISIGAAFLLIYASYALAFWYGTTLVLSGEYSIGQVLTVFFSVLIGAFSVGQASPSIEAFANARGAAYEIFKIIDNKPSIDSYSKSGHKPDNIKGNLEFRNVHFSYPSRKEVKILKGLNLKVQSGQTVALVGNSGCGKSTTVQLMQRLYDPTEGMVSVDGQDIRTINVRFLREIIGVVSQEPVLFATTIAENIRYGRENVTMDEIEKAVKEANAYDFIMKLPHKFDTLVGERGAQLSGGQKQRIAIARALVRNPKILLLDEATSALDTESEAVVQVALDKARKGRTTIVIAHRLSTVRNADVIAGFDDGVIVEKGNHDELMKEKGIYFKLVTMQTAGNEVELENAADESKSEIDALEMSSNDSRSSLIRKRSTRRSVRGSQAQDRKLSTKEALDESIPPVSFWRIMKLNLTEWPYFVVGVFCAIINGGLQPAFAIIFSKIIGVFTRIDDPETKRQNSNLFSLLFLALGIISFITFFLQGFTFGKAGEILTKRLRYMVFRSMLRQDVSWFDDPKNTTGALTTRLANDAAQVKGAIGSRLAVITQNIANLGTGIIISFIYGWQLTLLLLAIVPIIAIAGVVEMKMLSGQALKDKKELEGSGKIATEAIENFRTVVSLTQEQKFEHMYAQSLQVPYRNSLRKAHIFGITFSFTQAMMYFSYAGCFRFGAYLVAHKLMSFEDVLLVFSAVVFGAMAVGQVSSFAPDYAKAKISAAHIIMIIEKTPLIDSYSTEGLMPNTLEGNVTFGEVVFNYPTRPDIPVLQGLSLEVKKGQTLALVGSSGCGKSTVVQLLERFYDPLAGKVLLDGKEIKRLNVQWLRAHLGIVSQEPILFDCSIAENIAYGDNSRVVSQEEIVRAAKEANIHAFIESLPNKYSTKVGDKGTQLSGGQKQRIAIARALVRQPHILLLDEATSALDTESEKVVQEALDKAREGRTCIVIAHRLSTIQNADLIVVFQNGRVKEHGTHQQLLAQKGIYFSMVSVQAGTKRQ
MEASUREMENT_KIND: Activity (%)
State the answer as a number, implicitly in %.

Using known records, supply Activity for COc1cc2c(cc1OC)CN(Cc1ccc(-c3ccc(O)cc3)cc1)CC2 20

Using known records, supply Activity for COc1cc2c(cc1OC)CN(Cc1ccc(-c3ccc(O)cc3)c(OC)c1)CC2 15

Using known records, supply Activity for COc1cc2c(cc1OC)CN(Cc1ccc(-c3ccc(O)cc3OC)cc1)CC2 60

Using known records, supply Activity for COc1cc(-c2ccc(O)cc2)ccc1CN1CCc2cc(OC)c(OC)cc2C1 15
